Target: T1, PUF4 RNA-binding domain (Saccharomyces cerevisiae, UniProt P25339 537-888)
T1 sequence: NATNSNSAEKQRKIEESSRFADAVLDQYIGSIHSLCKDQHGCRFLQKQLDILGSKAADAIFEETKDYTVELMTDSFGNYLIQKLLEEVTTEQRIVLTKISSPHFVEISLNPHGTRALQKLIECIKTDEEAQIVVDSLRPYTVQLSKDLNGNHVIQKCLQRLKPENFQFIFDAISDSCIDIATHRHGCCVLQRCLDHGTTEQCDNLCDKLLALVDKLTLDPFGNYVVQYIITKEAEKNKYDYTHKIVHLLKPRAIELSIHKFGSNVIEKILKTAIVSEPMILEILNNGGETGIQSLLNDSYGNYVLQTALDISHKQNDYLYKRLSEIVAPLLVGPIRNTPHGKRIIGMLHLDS
Test: Mg; RNA-MaP; 20 mM Na-HEPES pH 7.4, 30 mM KOAc, 0.75 mM MgCl2, 0.1% Tween-20, 5% glycerol, 0.1 mg/mL BSA, 2 mM DTT; 25 C; 0.0125-409.6 nM protein
Conditions: tags: N-His6-TEV cleaved; C-SNAP kept, Cy3B-labelled; label: tethered on chip by stalled RNA polymerase
Reported Endpoint: Kd (nM)
I only need the number, in nM, no unit after it.

Field Kd (entry Id_ii_S2_P4E.2_K4.1_C4.2_[T-1A]_H4.1_A4.1_F4.1_T4.2 (ssRNA) RNA: UUUGAUUAAUAUGAUAUCGUUCUUUCUCAUGUAUAUUAGUUUCUUUCUCGAUAUCAUAUUAAUCUUU ) reads 0.425

Field Kd (entry Ic_S4_P5E.1_K5.1_C5.1_H5.1_A5.1_[T6A]_[A7T]_F5.1_[T8C]_[T9C]_[A10T]_T5.1 (ssRNA) RNA: UUUGACAACUGAUCGUUCUUUCUUGUAUAUCCUUUCUUUCUCGAUCAGUUGUCUUU ) reads 14.7

Field Kd (entry UCUCUUUGUAGCGUCUCUCUU (ssRNA) [Ic_S1_P4E.1_K4.1_C4.1_H4.1_A4.1_[T5G]_[A6C]_[T7G]_F4.1_[A9C]_T4.1] ) reads 1710
